Target: T1, CaBdf1 BD2 (GST-tagged, wild-type) (Candida albicans (strain SC5314 / ATCC …, UniProt Q5A4W8))
T1 chain: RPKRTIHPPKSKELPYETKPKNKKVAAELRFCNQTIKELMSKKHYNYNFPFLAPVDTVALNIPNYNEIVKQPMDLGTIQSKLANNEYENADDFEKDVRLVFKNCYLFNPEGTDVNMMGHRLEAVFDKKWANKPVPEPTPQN
Test: histone peptide array (Active Motif MODified), 1 uM GST-tagged bromodomain, anti-GST detection, normalized mean intensity
Ends that are not written are not given here.
reported metric: binding score
Write no unit; give the number alone.

binder: ARTKQTARKSTGGKAPRKQ (A Rme2a T Kme1 Q T A Rme2a K S T G G K A P R K Q)
binding score: 0.00259
//
binder: ARTKQTARKSTGGKAPRKQ (A Rme2a T Kme3 Q T A Rme2s Kac S T G G K A P R K Q)
binding score: 0.0037
//
binder: SGRGKGGKGLGKGGAKRHR (S G R G Kac G G Kac G L G Kac G G A Kac R H R)
binding score: 0.902
//
binder: SGRGKGGKGLGKGGAKRHR (pS G Rme2s G Kac G G Kac G L G K G G A K R H R)
binding score: 0.0352
//
binder: ARTKQTARKSTGGKAPRKQ (A R T K Q T A Rme2s Kme3 pS T G G K A P R K Q)
binding score: 0.00333
//
binder: ARTKQTARKSTGGKAPRKQ (A Rme2s T Kme1 Q T A Rme2s Kac S T G G K A P R K Q)
binding score: 0.00555

Then this binder:
Specify reported binding score for the binder shown: SGRGK(Ac)QGGKARAKAKSRSS [H2a 1-19]
0.0074

Measured values drawn from paper PMC5454392 for this set.
